Tested on: biotinyl-Ile-oxazolone
ASSAY_SUMMARY: self-aminoacylation, catalytic enhancement (BIO) (fold over background); higher = more active; k-Seq, kA / k0A0; sequences stand for … in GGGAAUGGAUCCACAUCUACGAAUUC…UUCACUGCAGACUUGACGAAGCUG
This sample holds only a part of the variants without activity.
ENDPOINT_NAME: self-aminoacylation
Number only, please.

Previously resolved entries follow.
SEQUENCE_DATA	self-aminoacylation
AGACACCUAGGUCAUCGGGUG [Fam2.2 aminoacylation ribozyme variant]	3.01
AUUUCCCUGGUGAUCGAGUGA [Fam2.1 aminoacylation ribozyme variant]	2.77
AAGUUUGCUAAUAGUAGCAAG [Fam3.1 aminoacylation ribozyme variant]	1.04
CCACAGUUCAAGCACUCGGUC [Fam1B.1 aminoacylation ribozyme variant]	1.16
CCACACUUCACGAAAUCGGUC [Fam1B.1 aminoacylation ribozyme variant]	0.987

So for UUUACGCUGGUCAUCGAGUGA [Fam2.1 aminoacylation ribozyme variant] , the logged self-aminoacylation turned out to be 3.56

So for CUACUUCCAACAAUUGGUCUG [Fam1A.1 aminoacylation ribozyme variant] , the logged self-aminoacylation turned out to be 0.817

So for AUUCCCAUAGGUCAUCGGGUG [Fam2.2 aminoacylation ribozyme variant] , the logged self-aminoacylation turned out to be 15.6

So for CUUACCCUCGUCAUCGAGUGA [Fam2.1 aminoacylation ribozyme variant] , the logged self-aminoacylation turned out to be 1.82

So for AUUACCCUGUUCAGCGAGUGA [Fam2.1 aminoacylation ribozyme variant] , the logged self-aminoacylation turned out to be 2.51

So for CCAUACUUCCAGCAAUCGGUC [Fam1B.1 aminoacylation ribozyme variant] , the logged self-aminoacylation turned out to be 1.45

So for AUUCACCUAUGUCAGCGGGUG [Fam2.2 aminoacylation ribozyme variant] , the logged self-aminoacylation turned out to be 2.87

So for GUUACGCUGGUCAUCGAGUGA [Fam2.1 aminoacylation ribozyme variant] , the logged self-aminoacylation turned out to be 5.57

So for AUUACCCUGGCCAUCGAGCGA [Fam2.1 aminoacylation ribozyme variant] , the logged self-aminoacylation turned out to be 2.02

So for AUCCACCUAGGUCAUCGGGUU [Fam2.2 aminoacylation ribozyme variant] , the logged self-aminoacylation turned out to be 9.74

So for CUUCUUCAAUCAAUCGGUCUG [Fam1A.1 aminoacylation ribozyme variant] , the logged self-aminoacylation turned out to be 0.975

So for CUACUACAAACAAACGGUCUG [Fam1A.1 aminoacylation ribozyme variant] , the logged self-aminoacylation turned out to be 0.874

###

System: biotinyl-Leu-oxazolone
ASSAY_SUMMARY: self-aminoacylation, catalytic enhancement (BLO) (fold over background); higher = more active; k-Seq, kA / k0A0; sequences stand for … in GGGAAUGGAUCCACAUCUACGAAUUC…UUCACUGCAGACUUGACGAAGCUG
Variants at the floor of the assay were thinned out.
Could you label it criterion met if measured self-aminoacylation is 1 or higher, and criterion not met otherwise?

SEQUENCE_DATA	ANSWER_LABEL
CCAGACUUCAAGCAAUCGGUC [Fam1B.1 aminoacylation ribozyme variant]	criterion met

Continue with the next sequence.
Exam item: Hi, just wondering whether AUUACCCUGGUCAGGGAGUGA [Fam2.1 aminoacylation ribozyme variant] shows self-aminoacylation of 1 or higher.
Marked response: criterion met
